- method_summary: solvent given as SMILES
- experimental_parameters: in CC(C)=O
// values below are reported emission maximum
Give just the numeric value; nm need not be written.

Below are worked cases with known answers.
CN(C)c1ccc(/C=C/C=C/c2nc3ccccc3o2)cc1 :: 531
COC(=O)C(Cc1ccc2oc(-c3ccc(N(C)C)cc3)nc2c1)NC(=O)OC(C)(C)C (stereo not given) :: 394.49
CCCCCCC(CCCCCC)n1c(=O)c2c3ccc4cccc5c6cccc7ccc(c2c1=O)c(c76)c3c45 :: 514
CCC1=C(C)C2=Cc3cccn3[B-](F)(F)[N+]2=C1C :: 516

Per the records, this compound ( Cn1c(=O)c(/N=N/c2cc(S(=O)(=O)O)ccc2C(=O)O)c(O)c2ccccc21 ) has emission maximum equal to 538
